Test system: HCT-116
Assay: Antiproliferative activity against human HCT116 cells after 72 hrs by sulforhodamine B assay
Format: functional, cell-based
Conditions: HCT-116, 72 h
endpoint.label: IC50
Put down the number, then write its unit next to it.

Look up IC50: COc1ncc(-c2ccc3ncnc(NCCN4CCOCC4)c3c2)cc1NS(=O)(=O)c1ccc(F)cc1F
2.74 µM

Similarly, COc1ncc(-c2ccc3ncnc(NCCCN4CCOCC4)c3c2)cc1NS(=O)(=O)c1ccc(F)cc1F ?
18.8 µM

And the next one, COc1ncc(-c2ccc3ncnc(NCCN(C)C)c3c2)cc1NS(=O)(=O)c1ccc(F)cc1 ?
3.2 µM
